The measured values listed here are drawn from patent US20230212554A1.

# Substrate: NP of A/Wisconsin/67/2005(H3N2/H3W) (influenza A virus A/Wisconsin/67/2005 (H3N2))
# Sequence (P03466 whole entry): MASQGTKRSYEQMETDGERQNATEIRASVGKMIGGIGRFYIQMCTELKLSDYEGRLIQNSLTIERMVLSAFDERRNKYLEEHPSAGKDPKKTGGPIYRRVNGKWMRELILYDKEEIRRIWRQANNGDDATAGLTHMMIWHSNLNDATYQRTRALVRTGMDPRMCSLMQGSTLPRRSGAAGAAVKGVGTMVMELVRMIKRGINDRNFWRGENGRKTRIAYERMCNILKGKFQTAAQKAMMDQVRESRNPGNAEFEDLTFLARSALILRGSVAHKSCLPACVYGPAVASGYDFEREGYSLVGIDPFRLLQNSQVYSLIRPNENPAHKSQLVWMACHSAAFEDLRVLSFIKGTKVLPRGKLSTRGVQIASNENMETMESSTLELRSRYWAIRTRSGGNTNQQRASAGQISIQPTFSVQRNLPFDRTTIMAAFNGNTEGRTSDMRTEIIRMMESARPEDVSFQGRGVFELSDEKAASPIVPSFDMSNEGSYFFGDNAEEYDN
# ASSAY_OVERVIEW: sandwich ELISA, capture IgG; NP of lysed virus titrated; HRP-NP16 detection
Please respond with Yes when measured EC50 is strictly beneath 3 nM, and with No in all other cases.

Use the examples below as a reference point.
Task: Find out if reported EC50 for NP19 (antibody, V domains shown) VH: EVQLVESGGGLVQPGGSLRLSCAASGFTISSWGIHWVRQAPGKGLEWVAGIGPFWGYTSYADSVKGRFTISADTSKNTAYLQMNSLRAEDTAVYYCARFGVDNYGYMDYWGQGTLVTVSS VL: DIQMTQSPSSLSASVGDRVTITCRASQDVSGWVAWYQQKPGKAPKLLISWSTGLYSGVPSRFSGSGSGTDFTLTISSLQPEDFATYYCQQYFNFPVTFGQGTKVEIKR is less than 3 nM
Result: No

Task: Quick check: does NP16 (antibody, V domains shown) VH: EVQLVESGGGLVQPGGSLRLSCAASGFTIGNSGIHWVRQAPGKGLEWVAWIGPYWGFTSYADSVKGRFTISADTSKNTAYLQMNSLRAEDTAVYYCARFGNHWHLFMDYWGQGTLVTVSS VL: DIQMTQSPSSLSASVGDRVTITCRASQDVGSYVAWYQQKPGKAPKLLISWTTGLYSGVPSRFSGSGSGTDFTLTISSLQPEDFATYYCQQYFSYPVTFGQGTKVEIKR have EC50 under 3 nM?
Result: No

New cases:
Task: Dear colleague, could you confirm whether EC50 of NP3 (antibody, V domains shown) VH: EVQLVESGGGLVQPGGSLRLSCAASGFTISNYGIHWVRQAPGKGLEWVAGIWPFGGFTSYADSVKGRFTISADTSKNTAYLQMNSLRAEDTAVYYCARFHWNDHGYMDYWGQGTLVTVSS VL: DIQMTQSPSSLSASVGDRVTITCRASQDVGWYVAWYQQKPGKAPKLLIYSTTGLYSGVPSRFSGSGSGTDFTLTISSLQPEDFATYYCQQYYNYPITFGQGTKVEIKR falls below 3 nM? Thanks.
Result: Yes

Task: Lab note: EC50 threshold 3 nM. Does this binder come in strictly under it? NP6 (antibody, V domains shown) VH: EVQLVESGGGLVQPGGSLRLSCAASGFTINDGSIHWVRQAPGKGLEWVAGIGPFGGFTYYADSVKGRFTISADTSKNTAYLQMNSLRAEDTAVYYCARSGYSGSFDYWGQGTLVTVSS VL: DIQMTQSPSSLSASVGDRVTITCRASQDVYFGVAWYQQKPGKAPKLLIYGTSYLYSGVPSRFSGSGSGTDFTLTISSLQPEDFATYYCQQFSNWPITFGQGTKVEIKR
Result: Yes

Task: Lab note: EC50 threshold 3 nM. Does this binder come in strictly under it? NP7 (antibody, V domains shown) VH: EVQLVESGGGLVQPGGSLRLSCAASGFTISNGGIHWVRQAPGKGLEWVAGIGPYGGFTSYADSVKGRFTISADTSKNTAYLQMNSLRAEDTAVYYCARFYSNYYGYHGVMDYWGQGTLVTVSS VL: DIQMTQSPSSLSASVGDRVTITCRASQDVFGWVAWYQQKPGKAPKLLISYSASLYSGVPSRFSGSGSGTDFTLTISSLQPEDFATYYCQQYFNYPLTFGQGTKVEIKR
Result: Yes

Task: Take the binder NP5 (antibody, V domains shown) VH: EVQLVESGGGLVQPGGSLRLSCAASGFTISNGSIHWVRQAPGKGLEWVAGIWPSGGSTSYADSVKGRFTISADTINNSAYLQMNSLRAEDTAVYYCARWNYWGQGTLVTVSS VL: DIQMTQSPSSLSASVGDRVTITCRASQDVGWSVAWYQQKPGKAPKLLIYGSRWLYSGVPSRFSGSGSGTDFTLTISSLQPEDFATYYCQQGYNGPLTFGQGTKVEIKR and say whether its EC50 is less than 3 nM.
Result: No

Task: Determine if NP22 (antibody, V domains shown) VH: EVQLVESGGGLVQPGGSLRLSCAASGFTISDWSIHWVRQAPGKGLEWVAGIWPYWGSTSYADSVKGRFTISADTSKNTAYLQMNSLRAEDTAVYYCARGFYSWFDYWGQGTLVTVSS VL: DIQMTQSPSSLSASVGDRVTITCRASQDVFSWVAWYQQKPGKAPKLLISSASSLYSGVPSRFSGSGSGTDFTLTISSLQPEDFATYYCQQSWDYPITFGQGTKVEIKR shows EC50 strictly lower than 3 nM.
Result: No

Task: Below 3 nM on EC50? Entry NP15 (antibody, V domains shown) VH: EVQLVESGGGLVQPGGSLRLSCAASGFTISNWYIHWVRQAPGKGLEWVAGIGPYGGSTYYADSVKGRFTISADTSKNTAYLQMNSLRAEDTAVYYCARFHWDHLHGMDYWGQGTLVTVSS VL: DIQMTQSPSSLSASVGDRVTITCRASQDVDNNVAWYQQKPGKAPKLLISYSTGLYSGVPSRFSGSGSGTDFTLTISSLQPEDFATYYCQQYWNYPITFGQGTKVEIKR
Result: Yes

Task: Say whether its EC50 is strictly beneath 3 nM. Entry: NP21 (antibody, V domains shown) VH: EVQLVESGGGLVQPGGSLRLSCAASGFTINGYGIHWVRQAPGKGLEWVAGIWPYGGSTFYADSVKGRFTISADTSKNTAYLQMNSLRAEDTAVYYCARFYNNHGGIMDYWGQGTLVTVSS VL: DIQMTQSPSSLSASVGDRVTITCRASQDVYFYVAWYQQKPGKAPKLLIYGSRWLYSGVPSRFSGSGSGTDFTLTISSLQPEDFATYYCQQYSNFPVTFGQGTKVEIKR
Result: Yes
